molecular target: FASN Keto-reductase Domain (Homo sapiens, UniProt P49327); construct: 10 μL hFASN enzyme (full length, 300 ng, purified in house) and 360 μM NADPH; made in house; experiment: Fatty Acid Synthase Keto-Reductase Domain (FASN KR) Inhibition; format: biochemical; conditions: mean where tested more than once; read-out: FASN K-R Domain pIC50 (converted)
Sequence (P49327 whole entry, the tested form may be a part): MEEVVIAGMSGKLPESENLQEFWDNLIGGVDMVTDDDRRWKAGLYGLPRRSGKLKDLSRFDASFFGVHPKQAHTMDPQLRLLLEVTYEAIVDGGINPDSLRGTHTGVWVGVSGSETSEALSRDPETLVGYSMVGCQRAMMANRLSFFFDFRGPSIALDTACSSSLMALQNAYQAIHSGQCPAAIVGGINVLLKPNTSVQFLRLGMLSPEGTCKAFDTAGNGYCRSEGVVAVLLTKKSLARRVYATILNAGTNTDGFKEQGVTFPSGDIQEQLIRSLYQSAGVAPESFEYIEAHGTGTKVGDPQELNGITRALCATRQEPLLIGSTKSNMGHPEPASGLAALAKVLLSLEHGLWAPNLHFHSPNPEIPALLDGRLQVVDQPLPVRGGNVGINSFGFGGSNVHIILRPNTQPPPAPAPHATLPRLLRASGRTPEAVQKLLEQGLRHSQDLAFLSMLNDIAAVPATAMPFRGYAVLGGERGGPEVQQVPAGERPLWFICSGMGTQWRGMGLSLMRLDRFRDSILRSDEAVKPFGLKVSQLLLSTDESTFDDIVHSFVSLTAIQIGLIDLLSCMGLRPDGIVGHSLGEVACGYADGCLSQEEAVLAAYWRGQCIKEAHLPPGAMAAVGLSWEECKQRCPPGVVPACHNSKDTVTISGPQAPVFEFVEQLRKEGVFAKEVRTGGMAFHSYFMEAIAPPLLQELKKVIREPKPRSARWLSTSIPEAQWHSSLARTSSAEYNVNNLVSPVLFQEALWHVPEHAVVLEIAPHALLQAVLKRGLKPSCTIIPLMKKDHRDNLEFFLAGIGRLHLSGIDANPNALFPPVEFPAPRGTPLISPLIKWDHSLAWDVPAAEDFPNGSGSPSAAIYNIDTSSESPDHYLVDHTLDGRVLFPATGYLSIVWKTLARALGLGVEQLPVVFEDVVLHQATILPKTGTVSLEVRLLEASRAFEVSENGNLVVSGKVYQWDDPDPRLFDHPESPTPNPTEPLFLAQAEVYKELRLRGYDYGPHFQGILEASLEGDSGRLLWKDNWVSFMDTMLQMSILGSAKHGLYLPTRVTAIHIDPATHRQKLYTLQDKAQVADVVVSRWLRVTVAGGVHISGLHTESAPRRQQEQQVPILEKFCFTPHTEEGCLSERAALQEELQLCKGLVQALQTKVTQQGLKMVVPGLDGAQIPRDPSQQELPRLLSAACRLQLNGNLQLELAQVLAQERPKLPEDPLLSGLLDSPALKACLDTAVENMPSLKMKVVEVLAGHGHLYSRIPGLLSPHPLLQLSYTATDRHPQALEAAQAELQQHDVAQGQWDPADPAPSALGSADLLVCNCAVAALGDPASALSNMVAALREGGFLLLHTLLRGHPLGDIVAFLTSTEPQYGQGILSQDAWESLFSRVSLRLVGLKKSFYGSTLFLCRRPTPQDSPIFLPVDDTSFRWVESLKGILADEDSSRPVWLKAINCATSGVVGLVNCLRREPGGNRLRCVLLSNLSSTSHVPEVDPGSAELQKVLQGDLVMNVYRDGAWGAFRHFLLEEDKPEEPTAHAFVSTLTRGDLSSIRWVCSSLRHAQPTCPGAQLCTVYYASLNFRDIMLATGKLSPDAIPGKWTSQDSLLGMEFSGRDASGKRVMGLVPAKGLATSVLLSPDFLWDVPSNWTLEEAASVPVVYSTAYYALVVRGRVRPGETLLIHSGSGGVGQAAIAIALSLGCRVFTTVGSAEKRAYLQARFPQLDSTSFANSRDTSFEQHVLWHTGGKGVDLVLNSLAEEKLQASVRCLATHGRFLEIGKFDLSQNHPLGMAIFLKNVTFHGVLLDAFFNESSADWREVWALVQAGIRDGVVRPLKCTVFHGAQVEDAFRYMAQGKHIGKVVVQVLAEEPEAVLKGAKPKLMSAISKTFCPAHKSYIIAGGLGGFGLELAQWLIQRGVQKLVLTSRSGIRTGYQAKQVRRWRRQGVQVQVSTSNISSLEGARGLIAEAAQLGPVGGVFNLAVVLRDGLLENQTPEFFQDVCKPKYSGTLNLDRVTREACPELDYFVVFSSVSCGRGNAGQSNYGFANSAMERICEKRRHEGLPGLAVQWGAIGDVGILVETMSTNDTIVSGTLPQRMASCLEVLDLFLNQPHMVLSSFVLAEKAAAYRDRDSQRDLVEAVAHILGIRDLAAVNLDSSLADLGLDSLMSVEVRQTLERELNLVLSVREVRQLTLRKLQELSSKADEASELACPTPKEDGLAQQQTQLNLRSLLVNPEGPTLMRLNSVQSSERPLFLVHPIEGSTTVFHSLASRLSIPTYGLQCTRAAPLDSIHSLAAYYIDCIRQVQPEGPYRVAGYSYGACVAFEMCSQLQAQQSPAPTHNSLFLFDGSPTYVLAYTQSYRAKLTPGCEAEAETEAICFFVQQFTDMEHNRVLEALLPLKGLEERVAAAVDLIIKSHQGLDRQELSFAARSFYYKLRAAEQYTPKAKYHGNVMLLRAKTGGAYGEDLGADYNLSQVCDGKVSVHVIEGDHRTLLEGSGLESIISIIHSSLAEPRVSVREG
IC50 less than 200 nM is label 1; IC50 greater than or equal to 200 nM is label 0.

> print(dat)
                                   molecule                            assayed.target  classification
1  Cc1ccc(C(=O)N2CCC(c3ccc(-c4cnn(C)c4)cc3)CC2)cc1NC(=O)C1CCN(CCC(C)C)C1 (stereo not shown)  FASN Keto-reductase Domain (Homo sapiens, UniProt P49327)         label 1

Problem: Is 200 nM strictly greater than the molecule's reported IC50? molecule: Cc1ccc(C(=O)N2CC(c3ccc(-c4cnn(C)c4)cc3)C2)cc1NC(=O)c1cccs1
Solution: label 1

Problem: Is 200 nM strictly greater than the molecule's reported IC50? molecule: CCN1CC(C(=O)Nc2cc(C(=O)N3CCC(c4ccc(-c5cnn(C)c5)cc4)CC3)ccc2C)C1
Solution: label 0

Problem: Is 200 nM strictly greater than the molecule's reported IC50? molecule: Cc1ccc(C(=O)N2CCC(c3ccc4c(c3)C(C)N(C)C4=O)CC2)cc1NC(=O)c1ccc(NC(C)C)nc1 (stereo not shown)
Solution: label 0

Problem: Is 200 nM strictly greater than the molecule's reported IC50? molecule: Cc1ccc(C(=O)N2CCC(c3ccc(-c4cnn(C)c4)cc3)CC2)cc1NC(=O)c1ccc(NC(C)C)nc1
Solution: label 1

Problem: Is 200 nM strictly greater than the molecule's reported IC50? molecule: Cc1ccc(C(=O)N2CCC(c3ccc(-c4cnn(C)c4)cc3)CC2)cc1NC(=O)C1CCN(CC(C)C)C1 (stereo not shown)
Solution: label 1

Problem: Is 200 nM strictly greater than the molecule's reported IC50? molecule: Cc1ccc(C(=O)N2CC(c3ccc(-c4cnn(C)c4)cc3)C2)cc1NC(=O)C1CCC1
Solution: label 1

###

tested on: A2780 ovarian cells; assay: A2780 Ovarian Cell Proliferation Assay in Lipid Reduced Medium, without Palmitate; format: cell-based; details: Homo sapiens, A2780; lipid reduced medium, without palmitate, 96 h, MTT; read-out: Proliferation A2780 w/o Palmitate pIC50 (converted)
IC50 less than 100 nM is T; IC50 greater than or equal to 100 nM is F.

> print(dat)
                                    compound       assayed.target  classification
 1  Cc1ccc(C(=O)N2CCC(c3ccc(-c4cnn(C)c4)cc3)CC2)cc1NC(=O)C1CCN(CC(C)(C)C)C1 (stereo not shown)  A2780 ovarian cells               T
 2  Cc1ccc(C(=O)N2CCC(c3ccc(-c4cnn(C)c4)cc3)CC2)cc1NC(=O)c1nc(Br)cs1  A2780 ovarian cells               T
 3  COCCN(C)c1ccc(C(=O)N2CCC(c3ccc(-c4cnn(C)c4)cc3)CC2)cc1NC(=O)c1ccc(NC(C)C)nc1  A2780 ovarian cells               F
 4  Cc1ccc(C(=O)N2CCC(c3ccc(-c4cnn(C)c4)cc3)CC2)cc1NC(=O)c1ccc(N2CCN(C)CC2)nc1  A2780 ovarian cells               T
 5  Cc1ccc(C(=O)N2CC(c3ccc(-c4cnn(C)c4)cc3)C2)cc1NC(=O)c1ccc(Cl)nc1  A2780 ovarian cells               F
 6  Cc1ccc(C(=O)N2CCC(c3ccc(-c4cnn(-c5ccncc5)c4)cc3)CC2)cc1NC(=O)c1ccc(NC(C)C)nc1  A2780 ovarian cells               T
 7  Cc1ccc(C(=O)N2CCC(c3ccc(-c4cccs4)cc3)CC2)cc1NC(=O)c1ccc(NC(C)C)nc1  A2780 ovarian cells               F
 8  COc1cc(C(=O)Nc2cc(C(=O)N3CCC(c4ccc(-c5cnn(C)c5)cc4)CC3)ccc2C)cc(Cl)n1  A2780 ovarian cells               F
 9  Cc1ccc(C(=O)N2CC(c3ccc(-c4ccncc4)cc3)C2)cc1NC(=O)c1ccc(Cl)nc1  A2780 ovarian cells               F
10  Cc1ccc(C(=O)N2CCC(c3ccc(-c4cnn(C)c4)cc3)CC2)cc1NC(=O)c1ccc(C#N)cc1  A2780 ovarian cells               F

Problem: Is 100 nM strictly greater than the compound's reported IC50? compound: Cc1ccc(C(=O)N2CCC(c3ccc(-c4ccnn4C)cc3)CC2)cc1NC(=O)c1ccc(NC(C)C)nc1
Solution: F

Problem: Is 100 nM strictly greater than the compound's reported IC50? compound: Cc1ccc(C(=O)N2CCC(c3ccc(-c4cnn(C)c4)cc3)CC2)cc1NC(=O)c1c(Cl)cccc1Cl
Solution: F

Problem: Is 100 nM strictly greater than the compound's reported IC50? compound: Cc1ccc(C(=O)N2CCC(c3ccc(-c4cnn(C)c4)cc3)CC2)cc1NC(=O)c1sccc1C
Solution: F

Problem: Is 100 nM strictly greater than the compound's reported IC50? compound: Cc1ccc(C(=O)N2CCC(c3ccc(-c4cnn(C)c4)cc3)CC2)cc1NC(=O)c1ccc(F)cc1F
Solution: F

Problem: Is 100 nM strictly greater than the compound's reported IC50? compound: Cc1ccc(C(=O)N2CCC(c3ccc4[nH]c(=O)sc4c3)CC2)cc1NC(=O)c1ccc(Cl)nc1
Solution: F

Problem: Is 100 nM strictly greater than the compound's reported IC50? compound: Cc1ccc(C(=O)N2CCC(c3ccc4[nH]c(=O)sc4c3)CC2)cc1NC(=O)c1ccc(NC(C)C)nc1
Solution: F

Problem: Is 100 nM strictly greater than the compound's reported IC50? compound: Cc1ccc(C(=O)N2CCC(c3ccc(-c4ccccc4F)cc3)CC2)cc1NC(=O)c1ccc(NC(C)C)nc1
Solution: F

Problem: Is 100 nM strictly greater than the compound's reported IC50? compound: Cc1ccc(C(=O)N2CCC(c3ccc(-c4cnn(C)c4)cc3)CC2)cc1NC(=O)C1CN(C(=O)C2CC2)C1
Solution: F

Problem: Is 100 nM strictly greater than the compound's reported IC50? compound: Cc1ccc(C(=O)N2CCC(c3ccc(-c4cnn(C)c4)cc3)CC2)cc1NC(=O)c1ccc2[nH]ccc2c1
Solution: T

Problem: Is 100 nM strictly greater than the compound's reported IC50? compound: CC(C)Nc1ccc(C(=O)Nc2cc(C(=O)N3CC(c4ccc(-c5cccnc5)cc4)C3)ccc2Cl)cn1
Solution: F

Problem: Is 100 nM strictly greater than the compound's reported IC50? compound: Cc1ccc(C(=O)N2CCC(c3ccc(-c4cnn(C)c4)cc3)CC2)cc1NC(=O)C1CN(C2CCC(C)C2)C1 (stereo not shown)
Solution: F

###

target: FASN Keto-reductase Domain (Homo sapiens, UniProt P49327); construct: 10 μL hFASN enzyme (full length, 300 ng, purified in house) and 360 μM NADPH; made in house; assay: Fatty Acid Synthase Keto-Reductase Domain (FASN KR) Inhibition; assay type: biochemical; conditions: mean where tested more than once; read-out: FASN K-R Domain pIC50 (converted)
Assay Readout: IC50 (nM)
A number alone suffices; assume nM.

> print(dat)
                                   compound                            assayed.target  unit.of.measure  numeric.result
1  CCCN1CCC(C(=O)Nc2cc(C(=O)N3CCC(c4ccc(-c5cnn(C)c5)cc4)CC3)ccc2C)C1 (stereo not shown) [Compound 186]  FASN Keto-reductase Domain (Homo sapiens, UniProt P49327)               nM             331
2  CCC(CC)C(=O)Nc1cc(C(=O)N2CC(c3ccc(-c4cnn(C)c4)cc3)C2)ccc1C [Compound 153]  FASN Keto-reductase Domain (Homo sapiens, UniProt P49327)               nM            61.7
3  Cc1ccc(F)c(C(=O)Nc2cc(C(=O)N3CCC(c4ccc(-c5cnn(C)c5)cc4)CC3)ccc2C)c1 [Compound 127]  FASN Keto-reductase Domain (Homo sapiens, UniProt P49327)               nM             389

Problem: Query IC50 on FASN Keto-reductase Domain (Homo sapiens, UniProt P49327) for Cc1ccc(C(=O)N2CCC(c3ccc(-c4cnn(C)c4)cc3)CC2)cc1NC(=O)c1ccc(N2CCN[C@@H](CO)C2)nc1 [Compound 163]
Solution: 46.8

Problem: Query IC50 on FASN Keto-reductase Domain (Homo sapiens, UniProt P49327) for Cc1ccc(C(=O)N2CCC(c3ccc4c(c3)CN(C)C4=O)CC2)cc1NC(=O)c1ccc(NC(C)C)nc1 [Compound 19]
Solution: 5500

Problem: Query IC50 on FASN Keto-reductase Domain (Homo sapiens, UniProt P49327) for Cc1ccc(C(=O)N2CCC(c3ccc(-c4cnn(C)c4)cc3)CC2)cc1NC(=O)C1CC1 [Compound #89]
Solution: 66.1
